- experimental-system: von Hippel-Lindau disease tumor suppressor/Histone deacetylase 1 (Homo sapiens, UniProt Q13547+P40337)
- Sequence (P40337 whole entry, looked up): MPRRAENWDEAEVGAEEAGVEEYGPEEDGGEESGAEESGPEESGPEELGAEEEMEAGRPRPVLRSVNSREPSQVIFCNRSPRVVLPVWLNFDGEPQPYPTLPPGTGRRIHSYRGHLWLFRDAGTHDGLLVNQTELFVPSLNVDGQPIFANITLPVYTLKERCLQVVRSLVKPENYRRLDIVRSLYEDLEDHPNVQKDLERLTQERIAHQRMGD
- Sequence (Q13547 whole entry, looked up): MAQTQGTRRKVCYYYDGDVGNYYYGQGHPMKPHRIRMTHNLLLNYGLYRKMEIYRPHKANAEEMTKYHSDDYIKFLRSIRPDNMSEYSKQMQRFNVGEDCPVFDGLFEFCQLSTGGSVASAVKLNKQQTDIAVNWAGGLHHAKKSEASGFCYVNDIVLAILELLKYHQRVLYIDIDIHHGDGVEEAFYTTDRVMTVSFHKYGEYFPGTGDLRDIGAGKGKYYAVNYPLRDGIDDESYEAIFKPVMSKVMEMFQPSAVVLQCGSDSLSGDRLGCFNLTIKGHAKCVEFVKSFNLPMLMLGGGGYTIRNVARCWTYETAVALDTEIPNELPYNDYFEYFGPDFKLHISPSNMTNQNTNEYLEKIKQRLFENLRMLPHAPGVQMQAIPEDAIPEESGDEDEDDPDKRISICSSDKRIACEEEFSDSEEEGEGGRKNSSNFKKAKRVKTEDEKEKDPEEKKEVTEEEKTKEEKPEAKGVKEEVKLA
- experiment-summary: Protac activity at VHL/HDAC1 in human HCT-116 cells assessed as induction of HDAC1 degradation at 1 to 10 uM incubated for 24 hrs by Western blot analysis
- Type: cell-based
- recorded-conditions: dose 1-10 µM
Activity calls are given as the source filed them. The calls are words filed in the database; no cut-off is given here.
Your reply should match one of these outcome classes. active, inactive

Some solved entries appear below for comparison.
compound=Cc1ncsc1-c1ccc(CNC(=O)[C@@H]2C[C@@H](O)CN2C(=O)[C@@H](NC(=O)COCCOCC(=O)Nc2ccc(C(=O)Nc3ccccc3N)cc2)C(C)(C)C)cc1 group_label=inactive
compound=Cc1ncsc1-c1ccc(CNC(=O)[C@@H]2C[C@@H](O)CN2C(=O)[C@@H](NC(=O)CCCCCCCCCC(=O)Nc2ccc(C(=O)Nc3ccccc3N)cc2)C(C)(C)C)cc1 group_label=active
compound="CC(=O)NC(C(=O)N1C[C@H](O)C[C@H]1C(=O)NCc1ccc(-c2scnc2C)cc1OCCCCNC(=O)CCCCC(=O)Nc1ccc(C(=O)Nc2ccccc2N)cc1)C(C)(C)C (single isomer, unassigned)" group_label=active
compound=Cc1ncsc1-c1ccc(CNC(=O)[C@@H]2C[C@@H](O)CN2C(=O)[C@@H](NC(=O)CCCCCCCC(=O)Nc2ccc(C(=O)Nc3ccccc3N)cc2)C(C)(C)C)cc1 group_label=active

Consider now this further compound.
What call does the record list for `Cc1ncsc1-c1ccc(CNC(=O)[C@@H]2C[C@@H](O)CN2C(=O)[C@@H](NC(=O)CCCCCCCC(=O)Nc2ccc(C(=O)Nc3cc(-c4cccs4)ccc3N)cc2)C(C)(C)C)cc1` ?
inactive

----------
- experimental-system: von Hippel-Lindau disease tumor suppressor/Histone deacetylase 2 (Homo sapiens) (UniProt Q92769+P40337)
- Sequence (Q92769 whole entry, looked up, one chain of several): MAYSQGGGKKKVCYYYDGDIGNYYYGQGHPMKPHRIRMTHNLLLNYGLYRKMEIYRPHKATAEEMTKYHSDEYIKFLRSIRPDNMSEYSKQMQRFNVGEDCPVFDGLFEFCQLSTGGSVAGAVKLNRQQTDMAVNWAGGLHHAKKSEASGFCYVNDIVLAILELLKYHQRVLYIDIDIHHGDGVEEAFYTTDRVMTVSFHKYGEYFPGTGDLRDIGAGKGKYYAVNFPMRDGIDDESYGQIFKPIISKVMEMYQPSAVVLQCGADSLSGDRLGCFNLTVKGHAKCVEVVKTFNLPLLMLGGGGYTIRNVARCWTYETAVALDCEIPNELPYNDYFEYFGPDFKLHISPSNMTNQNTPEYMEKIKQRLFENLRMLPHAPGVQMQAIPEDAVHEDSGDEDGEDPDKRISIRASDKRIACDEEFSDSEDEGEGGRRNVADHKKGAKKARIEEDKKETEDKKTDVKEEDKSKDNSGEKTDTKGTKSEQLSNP
- experiment-summary: Protac activity at VHL/HDAC2 in human HCT-116 cells assessed as induction of HDAC2 degradation at 1 to 10 uM incubated for 24 hrs by Western blot analysis
- Format: cell-based
- recorded-conditions: dose 1-10 µM
Active and inactive are the calls of the source. No cut-off for these calls is given here.
Your reply should match one of these outcome classes. 1 for active, -1 for inactive

Some solved entries appear below for comparison.
compound=Cc1ncsc1-c1ccc(CNC(=O)[C@@H]2C[C@@H](O)CN2C(=O)[C@@H](NC(=O)COCCOCC(=O)Nc2ccc(C(=O)Nc3ccccc3N)cc2)C(C)(C)C)cc1 group_label=-1
compound=Cc1ncsc1-c1ccc(CNC(=O)[C@@H]2C[C@@H](O)CN2C(=O)[C@@H](NC(=O)COCCOCCOCC(=O)Nc2ccc(C(=O)Nc3cc(-c4cccs4)ccc3N)cc2)C(C)(C)C)cc1 group_label=-1
compound=Cc1ncsc1-c1ccc(CNC(=O)[C@@H]2C[C@@H](O)CN2C(=O)[C@@H](NC(=O)CCCCCCCC(=O)Nc2ccc(C(=O)Nc3ccccc3N)cc2)C(C)(C)C)cc1 group_label=1
compound=Cc1ncsc1-c1ccc(CNC(=O)[C@@H]2C[C@@H](O)CN2C(=O)[C@@H](NC(=O)CCCCCCCCCCCCC(=O)Nc2ccc(C(=O)Nc3ccccc3N)cc2)C(C)(C)C)cc1 group_label=1
compound=Cc1ncsc1-c1ccc(CNC(=O)[C@@H]2C[C@@H](O)CN2C(=O)[C@@H](NC(=O)CCCCCCCCCCC(=O)Nc2ccc(C(=O)Nc3cc(-c4cccs4)ccc3N)cc2)C(C)(C)C)cc1 group_label=-1

What call does the record list for `Cc1ncsc1-c1ccc(CNC(=O)[C@@H]2C[C@@H](O)CN2C(=O)[C@@H](NC(=O)CCCCCCCCC(=O)Nc2ccc(C(=O)Nc3ccccc3N)cc2)C(C)(C)C)cc1` ?
1

What call does the record list for `Cc1ncsc1-c1ccc(CNC(=O)[C@@H]2C[C@@H](O)CN2C(=O)[C@@H](NC(=O)CCCCCCCCCC(=O)Nc2ccc(C(=O)Nc3ccccc3N)cc2)C(C)(C)C)cc1` ?
1

What call does the record list for Cc1ncsc1-c1ccc(CNC(=O)[C@@H]2CC(O)CN2C(=O)[C@@H](NC(=O)COCCOCCOCCOCC(=O)Nc2ccc(C(=O)Nc3ccccc3N)cc2)C(C)(C)C)cc1 (single isomer, unassigned) ?
-1

What call does the record list for `Cc1ncsc1-c1ccc(CNC(=O)[C@@H]2C[C@@H](O)CN2C(=O)[C@@H](NC(=O)COCCOCCOCC(=O)Nc2ccc(C(=O)Nc3ccccc3N)cc2)C(C)(C)C)cc1` ?
-1

What call does the record list for `Cc1ncsc1-c1ccc(CNC(=O)[C@@H]2C[C@@H](O)CN2C(=O)[C@@H](NC(=O)CCCN2CCN(CCCC(=O)Nc3ccc(C(=O)Nc4ccccc4N)cc3)CC2)C(C)(C)C)cc1` ?
-1

What call does the record list for `Cc1ncsc1-c1ccc(CNC(=O)[C@@H]2C[C@@H](O)CN2C(=O)[C@@H](NC(=O)CCCCCCCC(=O)Nc2ccc(C(=O)Nc3cc(-c4cccs4)ccc3N)cc2)C(C)(C)C)cc1` ?
-1
